Molecular target: ULK2 (human) (UniProt Q8IYT8)
Sequence (Q8IYT8 whole entry, looked up): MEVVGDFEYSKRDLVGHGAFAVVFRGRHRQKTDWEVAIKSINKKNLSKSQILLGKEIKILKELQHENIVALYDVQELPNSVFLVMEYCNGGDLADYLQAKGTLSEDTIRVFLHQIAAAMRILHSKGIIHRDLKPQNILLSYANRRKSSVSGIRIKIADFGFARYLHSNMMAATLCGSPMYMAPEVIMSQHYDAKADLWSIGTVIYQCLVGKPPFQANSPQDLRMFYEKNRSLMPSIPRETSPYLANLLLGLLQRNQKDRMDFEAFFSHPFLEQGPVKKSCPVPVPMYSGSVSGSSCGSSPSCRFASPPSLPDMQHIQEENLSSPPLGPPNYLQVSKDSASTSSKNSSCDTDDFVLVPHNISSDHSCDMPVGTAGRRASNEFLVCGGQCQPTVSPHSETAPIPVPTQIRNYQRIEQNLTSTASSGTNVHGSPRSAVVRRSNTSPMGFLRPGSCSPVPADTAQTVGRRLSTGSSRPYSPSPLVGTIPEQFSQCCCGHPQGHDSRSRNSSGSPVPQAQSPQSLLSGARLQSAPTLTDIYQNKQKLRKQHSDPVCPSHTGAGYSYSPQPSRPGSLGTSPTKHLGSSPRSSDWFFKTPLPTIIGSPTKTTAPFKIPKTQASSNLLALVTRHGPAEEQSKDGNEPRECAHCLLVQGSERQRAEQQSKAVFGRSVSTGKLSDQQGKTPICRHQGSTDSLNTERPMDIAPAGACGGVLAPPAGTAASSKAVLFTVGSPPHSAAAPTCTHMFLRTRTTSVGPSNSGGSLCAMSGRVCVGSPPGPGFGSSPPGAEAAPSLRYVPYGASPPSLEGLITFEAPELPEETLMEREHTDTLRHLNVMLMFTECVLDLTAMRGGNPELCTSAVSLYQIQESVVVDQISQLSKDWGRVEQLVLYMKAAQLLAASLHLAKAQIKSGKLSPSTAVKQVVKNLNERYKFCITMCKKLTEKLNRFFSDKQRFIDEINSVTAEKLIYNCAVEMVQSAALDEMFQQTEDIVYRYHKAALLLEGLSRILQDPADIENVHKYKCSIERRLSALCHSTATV
Assay: KINOMEscan competition binding
Details: compound 10.0 µM
Values of kinase still bound, per cent of control strictly less than 90% map to y, and values of at least 90% map to n.

compound: CC(=O)c1c(C)c2cnc(Nc3ccc(N4CCNCC4)cn3)nc2n(C2CCCC2)c1=O
assigned-class: y
--
compound: CCOc1cc(N2CCC(O)CC2)ccc1Nc1ncc2c(n1)N(C)c1ccccc1C(=O)N2C
assigned-class: n
--
compound: C=CC(=O)Nc1ccc(C(=O)c2sc(Nc3ccc(N4CCN(C)CC4)cc3OC)nc2N)cc1
assigned-class: y
--
compound: Cc1cn(-c2cc(C(=O)Nc3ccc(C)c(NC(=O)c4ccno4)c3)cc(C(F)(F)F)c2)cn1
assigned-class: n
--
compound: COc1cc2ncnc(Nc3cccc(Cl)c3)c2cc1OC
assigned-class: y
--
compound: CCc1nc(-c2cccc(C)c2)c(-c2ccnc(NC(=O)c3ccccc3)c2)s1
assigned-class: n
--
compound: CC1=C(C(=O)Nc2cc3cn[nH]c3cc2F)C(c2ccc(C(F)(F)F)cc2)CC(=O)N1 (centres undefined)
assigned-class: y

###

kinase still bound, per cent of control: recorded values
Target: MAP3K15 (human) (UniProt Q6ZN16)
Sequence (Q6ZN16 whole entry, looked up): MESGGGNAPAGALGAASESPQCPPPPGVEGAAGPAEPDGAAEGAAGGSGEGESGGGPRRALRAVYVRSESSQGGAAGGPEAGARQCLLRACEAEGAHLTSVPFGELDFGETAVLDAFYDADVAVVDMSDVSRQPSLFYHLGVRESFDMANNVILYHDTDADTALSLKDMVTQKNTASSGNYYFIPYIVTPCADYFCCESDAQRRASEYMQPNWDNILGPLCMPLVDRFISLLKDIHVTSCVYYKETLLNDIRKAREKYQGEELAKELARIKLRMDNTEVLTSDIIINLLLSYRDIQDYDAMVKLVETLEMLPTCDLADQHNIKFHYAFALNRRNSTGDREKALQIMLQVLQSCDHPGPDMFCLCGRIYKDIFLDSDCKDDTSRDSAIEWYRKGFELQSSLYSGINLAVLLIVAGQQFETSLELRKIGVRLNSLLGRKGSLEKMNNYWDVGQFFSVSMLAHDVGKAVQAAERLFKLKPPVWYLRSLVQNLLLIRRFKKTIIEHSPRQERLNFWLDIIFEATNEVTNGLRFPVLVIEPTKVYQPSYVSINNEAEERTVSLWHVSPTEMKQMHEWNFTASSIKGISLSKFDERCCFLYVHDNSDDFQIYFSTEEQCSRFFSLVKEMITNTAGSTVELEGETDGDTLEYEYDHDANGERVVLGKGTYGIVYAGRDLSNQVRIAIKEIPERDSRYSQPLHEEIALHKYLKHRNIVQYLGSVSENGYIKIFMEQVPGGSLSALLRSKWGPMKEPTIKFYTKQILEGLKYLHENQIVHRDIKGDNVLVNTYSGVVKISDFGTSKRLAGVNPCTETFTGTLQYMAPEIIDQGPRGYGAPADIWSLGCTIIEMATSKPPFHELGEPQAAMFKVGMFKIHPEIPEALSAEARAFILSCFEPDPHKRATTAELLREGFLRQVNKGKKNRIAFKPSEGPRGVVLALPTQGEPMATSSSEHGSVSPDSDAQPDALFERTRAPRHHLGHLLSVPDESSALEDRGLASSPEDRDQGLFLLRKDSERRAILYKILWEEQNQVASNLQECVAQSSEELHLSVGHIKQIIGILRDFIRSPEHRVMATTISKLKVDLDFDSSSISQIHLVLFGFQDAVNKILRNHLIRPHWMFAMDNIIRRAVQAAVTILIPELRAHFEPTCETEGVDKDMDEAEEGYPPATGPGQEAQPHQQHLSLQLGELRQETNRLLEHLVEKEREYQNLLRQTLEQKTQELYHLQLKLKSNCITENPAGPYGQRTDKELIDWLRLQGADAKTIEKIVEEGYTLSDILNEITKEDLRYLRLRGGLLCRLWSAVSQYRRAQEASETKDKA
Assay: KINOMEscan competition binding
Details: compound 10.0 µM

compound: CCc1nc(-c2cccc(C)c2)c(-c2ccnc(NC(=O)c3ccccc3)c2)s1
kinase still bound, per cent of control [%]: 100
--
compound: CC1=C(C(=O)Nc2cc3cn[nH]c3cc2F)C(c2ccc(C(F)(F)F)cc2)CC(=O)N1 (centres undefined)
kinase still bound, per cent of control [%]: 77
--
compound: CCCS(=O)(=O)Nc1ccc(F)c(C(=O)c2c[nH]c3ncc(Cl)cc23)c1F
kinase still bound, per cent of control [%]: 74
--
compound: COc1cc2c(Nc3ccc(NC(=O)c4ccccc4)cc3)ncnc2cc1OCCCN1CCOCC1
kinase still bound, per cent of control [%]: 100
--
compound: CCN1CCN(Cc2ccc(NC(=O)c3ccc(C)c(/C=C/c4cnc5[nH]ccc5c4OC)c3)cc2C(F)(F)F)CC1
kinase still bound, per cent of control [%]: 100
--
compound: CC(=O)c1c(C)c2cnc(Nc3ccc(N4CCNCC4)cn3)nc2n(C2CCCC2)c1=O
kinase still bound, per cent of control [%]: 11
--
compound: N#C/C(=C1/Nc2ccccc2S1)c1ccnc(NCCc2cccnc2)n1
kinase still bound, per cent of control [%]: 100
--
compound: CNC(=O)Nc1ccc(-c2nc(N3CC4CCC(C3)O4)c3cnn(C4CCC5(CC4)OCCO5)c3n2)cc1
kinase still bound, per cent of control [%]: 100
--
compound: CCOc1cc(N2CCC(O)CC2)ccc1Nc1ncc2c(n1)N(C)c1ccccc1C(=O)N2C
kinase still bound, per cent of control [%]: 100

###

Target: TAOK2 (human) (UniProt Q9UL54)
Sequence (Q9UL54 whole entry, looked up): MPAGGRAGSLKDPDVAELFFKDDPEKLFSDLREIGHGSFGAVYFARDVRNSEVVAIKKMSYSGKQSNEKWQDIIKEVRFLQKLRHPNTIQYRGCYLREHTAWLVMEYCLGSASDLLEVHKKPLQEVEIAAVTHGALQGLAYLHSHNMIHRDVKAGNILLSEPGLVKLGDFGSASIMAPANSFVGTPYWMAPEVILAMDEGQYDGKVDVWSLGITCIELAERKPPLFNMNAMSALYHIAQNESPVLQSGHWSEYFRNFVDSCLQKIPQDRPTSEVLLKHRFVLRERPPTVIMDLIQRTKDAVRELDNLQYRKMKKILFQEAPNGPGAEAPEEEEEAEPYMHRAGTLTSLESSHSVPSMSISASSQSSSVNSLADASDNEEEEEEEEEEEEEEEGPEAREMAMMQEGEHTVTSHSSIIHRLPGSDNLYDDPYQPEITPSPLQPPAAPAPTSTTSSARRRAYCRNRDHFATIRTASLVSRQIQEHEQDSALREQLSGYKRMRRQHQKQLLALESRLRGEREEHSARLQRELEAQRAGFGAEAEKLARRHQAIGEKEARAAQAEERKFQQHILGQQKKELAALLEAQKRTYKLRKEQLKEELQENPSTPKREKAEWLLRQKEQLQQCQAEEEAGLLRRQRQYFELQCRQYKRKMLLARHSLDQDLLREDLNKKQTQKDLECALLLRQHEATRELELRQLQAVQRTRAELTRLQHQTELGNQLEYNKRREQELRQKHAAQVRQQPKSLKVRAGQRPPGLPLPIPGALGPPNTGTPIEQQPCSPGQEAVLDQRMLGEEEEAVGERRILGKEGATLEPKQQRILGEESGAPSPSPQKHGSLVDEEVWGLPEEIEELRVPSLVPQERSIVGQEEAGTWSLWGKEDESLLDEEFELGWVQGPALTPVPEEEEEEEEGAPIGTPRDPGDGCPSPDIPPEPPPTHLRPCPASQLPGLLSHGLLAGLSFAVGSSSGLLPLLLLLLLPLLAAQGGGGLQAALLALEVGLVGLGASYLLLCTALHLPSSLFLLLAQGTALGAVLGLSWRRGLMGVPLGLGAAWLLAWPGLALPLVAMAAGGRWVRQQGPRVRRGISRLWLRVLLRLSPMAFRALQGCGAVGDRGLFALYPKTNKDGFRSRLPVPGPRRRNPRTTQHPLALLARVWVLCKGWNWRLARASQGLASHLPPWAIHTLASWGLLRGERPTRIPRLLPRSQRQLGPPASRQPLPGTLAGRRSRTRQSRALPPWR
Assay: KINOMEscan competition binding
Settings: compound 10.0 µM
kinase still bound, per cent of control: recorded values

molecule: CC1=C(C(=O)Nc2cc3cn[nH]c3cc2F)C(c2ccc(C(F)(F)F)cc2)CC(=O)N1 (stereo not drawn)
system-under-test: TAOK2 (human) (UniProt Q9UL54)
kinase still bound, per cent of control: 96%
--
molecule: C=CC(=O)Nc1ccc(C(=O)c2sc(Nc3ccc(N4CCN(C)CC4)cc3OC)nc2N)cc1
system-under-test: TAOK2 (human) (UniProt Q9UL54)
kinase still bound, per cent of control: 20%
--
molecule: COc1cc2c(Nc3ccc(NC(=O)c4ccccc4)cc3)ncnc2cc1OCCCN1CCOCC1
system-under-test: TAOK2 (human) (UniProt Q9UL54)
kinase still bound, per cent of control: 94%

###

Molecular target: STK25 (human) (UniProt O00506)
Sequence (O00506 whole entry, looked up): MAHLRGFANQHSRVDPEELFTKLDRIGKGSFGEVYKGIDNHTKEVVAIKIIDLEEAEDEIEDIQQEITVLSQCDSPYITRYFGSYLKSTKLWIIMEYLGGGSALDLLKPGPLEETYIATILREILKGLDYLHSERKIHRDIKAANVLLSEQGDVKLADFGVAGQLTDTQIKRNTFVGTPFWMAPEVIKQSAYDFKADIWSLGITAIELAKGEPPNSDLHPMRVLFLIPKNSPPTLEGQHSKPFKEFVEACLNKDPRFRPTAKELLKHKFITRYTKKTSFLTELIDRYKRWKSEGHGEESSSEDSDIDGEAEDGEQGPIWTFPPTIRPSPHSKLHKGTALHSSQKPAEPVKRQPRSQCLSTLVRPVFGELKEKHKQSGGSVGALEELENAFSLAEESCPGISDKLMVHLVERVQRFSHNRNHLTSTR
Assay: KINOMEscan competition binding
Conditions: compound 10.0 µM
kinase still bound, per cent of control: recorded values

smiles-representation: CCN1CCN(Cc2ccc(NC(=O)c3ccc(C)c(/C=C/c4cnc5[nH]ccc5c4OC)c3)cc2C(F)(F)F)CC1
unit-of-measurement: %
kinase still bound, per cent of control: 100
--
smiles-representation: O=c1[nH]c2ccccc2n1C1CCN(Cc2ccc(-c3nc4cc5[nH]cnc5cc4nc3-c3ccccc3)cc2)CC1
unit-of-measurement: %
kinase still bound, per cent of control: 97
--
smiles-representation: COc1ccc(N(C(=O)Oc2cc(C(=O)Nc3cccc(C(F)(F)F)c3)ccc2C)c2ccnc(Nc3ccc(N4CCN(C)CC4)cc3)n2)c(OC)c1
unit-of-measurement: %
kinase still bound, per cent of control: 100
--
smiles-representation: CCc1nc(-c2cccc(C)c2)c(-c2ccnc(NC(=O)c3ccccc3)c2)s1
unit-of-measurement: %
kinase still bound, per cent of control: 84
--
smiles-representation: COc1cc2ncnc(Nc3cccc(Cl)c3)c2cc1OC
unit-of-measurement: %
kinase still bound, per cent of control: 77
--
smiles-representation: CNC(=O)Nc1ccc(-c2nc(N3CC4CCC(C3)O4)c3cnn(C4CCC5(CC4)OCCO5)c3n2)cc1
unit-of-measurement: %
kinase still bound, per cent of control: 91
--
smiles-representation: CC(=O)c1c(C)c2cnc(Nc3ccc(N4CCNCC4)cn3)nc2n(C2CCCC2)c1=O
unit-of-measurement: %
kinase still bound, per cent of control: 34
--
smiles-representation: C=CC(=O)Nc1ccc(C(=O)c2sc(Nc3ccc(N4CCN(C)CC4)cc3OC)nc2N)cc1
unit-of-measurement: %
kinase still bound, per cent of control: 100
--
smiles-representation: COc1cc(N2CCC(C(N)=O)CC2)ccc1Nc1nc(N)c(Cl)c(Nc2ccccc2S(=O)(=O)C(C)C)n1
unit-of-measurement: %
kinase still bound, per cent of control: 100

###

Biological target: MARK3 (human) (UniProt P27448)
Sequence (P27448 whole entry, looked up): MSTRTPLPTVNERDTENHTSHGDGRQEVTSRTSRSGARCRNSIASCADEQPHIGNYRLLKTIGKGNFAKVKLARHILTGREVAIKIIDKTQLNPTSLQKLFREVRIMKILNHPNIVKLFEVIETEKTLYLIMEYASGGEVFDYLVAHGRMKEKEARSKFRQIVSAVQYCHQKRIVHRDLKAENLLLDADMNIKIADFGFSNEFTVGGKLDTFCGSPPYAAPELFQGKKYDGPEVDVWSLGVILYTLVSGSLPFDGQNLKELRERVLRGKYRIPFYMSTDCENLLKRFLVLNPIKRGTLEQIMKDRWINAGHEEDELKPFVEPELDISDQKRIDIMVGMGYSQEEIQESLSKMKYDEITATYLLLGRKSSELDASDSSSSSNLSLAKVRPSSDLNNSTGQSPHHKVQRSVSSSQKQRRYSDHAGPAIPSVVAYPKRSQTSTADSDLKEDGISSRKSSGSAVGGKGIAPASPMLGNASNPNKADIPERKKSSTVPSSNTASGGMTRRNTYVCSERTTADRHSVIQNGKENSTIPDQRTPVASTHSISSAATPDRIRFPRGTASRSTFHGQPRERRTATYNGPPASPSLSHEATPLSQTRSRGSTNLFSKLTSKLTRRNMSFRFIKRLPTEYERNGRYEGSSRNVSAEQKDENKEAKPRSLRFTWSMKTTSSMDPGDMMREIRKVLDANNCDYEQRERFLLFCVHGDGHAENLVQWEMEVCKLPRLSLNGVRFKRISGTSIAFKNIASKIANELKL
Assay: KINOMEscan competition binding
Details: compound 10.0 µM

compound: N#C/C(=C1/Nc2ccccc2S1)c1ccnc(NCCc2cccnc2)n1
system-under-test: MARK3 (human) (UniProt P27448)
kinase still bound, per cent of control (%): 100
--
compound: COc1cc2c(Nc3ccc(NC(=O)c4ccccc4)cc3)ncnc2cc1OCCCN1CCOCC1
system-under-test: MARK3 (human) (UniProt P27448)
kinase still bound, per cent of control (%): 96
--
compound: COc1cc(N2CCC(C(N)=O)CC2)ccc1Nc1nc(N)c(Cl)c(Nc2ccccc2S(=O)(=O)C(C)C)n1
system-under-test: MARK3 (human) (UniProt P27448)
kinase still bound, per cent of control (%): 100
--
compound: CNC(=O)Nc1ccc(-c2nc(N3CC4CCC(C3)O4)c3cnn(C4CCC5(CC4)OCCO5)c3n2)cc1
system-under-test: MARK3 (human) (UniProt P27448)
kinase still bound, per cent of control (%): 92
--
compound: CCOc1cc(N2CCC(O)CC2)ccc1Nc1ncc2c(n1)N(C)c1ccccc1C(=O)N2C
system-under-test: MARK3 (human) (UniProt P27448)
kinase still bound, per cent of control (%): 100
--
compound: CCCS(=O)(=O)Nc1ccc(F)c(C(=O)c2c[nH]c3ncc(Cl)cc23)c1F
system-under-test: MARK3 (human) (UniProt P27448)
kinase still bound, per cent of control (%): 74
--
compound: CC1=C(C(=O)Nc2cc3cn[nH]c3cc2F)C(c2ccc(C(F)(F)F)cc2)CC(=O)N1 (stereo not drawn)
system-under-test: MARK3 (human) (UniProt P27448)
kinase still bound, per cent of control (%): 100
--
compound: COc1cc2ncnc(Nc3cccc(Cl)c3)c2cc1OC
system-under-test: MARK3 (human) (UniProt P27448)
kinase still bound, per cent of control (%): 100
--
compound: C=CC(=O)Nc1ccc(C(=O)c2sc(Nc3ccc(N4CCN(C)CC4)cc3OC)nc2N)cc1
system-under-test: MARK3 (human) (UniProt P27448)
kinase still bound, per cent of control (%): 100
--
compound: CCN(CCO)CCCOc1ccc2c(Nc3cc(CC(=O)Nc4cccc(F)c4)[nH]n3)ncnc2c1
system-under-test: MARK3 (human) (UniProt P27448)
kinase still bound, per cent of control (%): 88
--
compound: CCc1nc(-c2cccc(C)c2)c(-c2ccnc(NC(=O)c3ccccc3)c2)s1
system-under-test: MARK3 (human) (UniProt P27448)
kinase still bound, per cent of control (%): 72
--
compound: COc1cc(C)c(Sc2cnc(NC(=O)c3ccc(CNC(C)C(C)C)cc3)s2)cc1C(=O)N1CCN(C(C)=O)CC1 (stereo not drawn)
system-under-test: MARK3 (human) (UniProt P27448)
kinase still bound, per cent of control (%): 100
--
compound: COc1ccc(N(C(=O)Oc2cc(C(=O)Nc3cccc(C(F)(F)F)c3)ccc2C)c2ccnc(Nc3ccc(N4CCN(C)CC4)cc3)n2)c(OC)c1
system-under-test: MARK3 (human) (UniProt P27448)
kinase still bound, per cent of control (%): 100
--
compound: CC(=O)c1c(C)c2cnc(Nc3ccc(N4CCNCC4)cn3)nc2n(C2CCCC2)c1=O
system-under-test: MARK3 (human) (UniProt P27448)
kinase still bound, per cent of control (%): 8
--
compound: O=c1[nH]c2ccccc2n1C1CCN(Cc2ccc(-c3nc4cc5[nH]cnc5cc4nc3-c3ccccc3)cc2)CC1
system-under-test: MARK3 (human) (UniProt P27448)
kinase still bound, per cent of control (%): 72
--
compound: N#Cc1cc(-c2ccnc(Nc3ccc(-n4cnc(-c5cccnc5)n4)cc3)n2)cc(N2CCOCC2)c1
system-under-test: MARK3 (human) (UniProt P27448)
kinase still bound, per cent of control (%): 100
--
compound: Cc1cn(-c2cc(C(=O)Nc3ccc(C)c(NC(=O)c4ccno4)c3)cc(C(F)(F)F)c2)cn1
system-under-test: MARK3 (human) (UniProt P27448)
kinase still bound, per cent of control (%): 100
--
compound: CCN1CCN(Cc2ccc(NC(=O)c3ccc(C)c(/C=C/c4cnc5[nH]ccc5c4OC)c3)cc2C(F)(F)F)CC1
system-under-test: MARK3 (human) (UniProt P27448)
kinase still bound, per cent of control (%): 38
